details: caco-2
Exam item: assign Met to entries whose Daq is below 8 ×10⁻⁶ cm2/s and Not met to entries at or above 8 ×10⁻⁶ cm2/s. Note that a value of exactly 8 ×10⁻⁶ cm2/s receives Not met.

Illustrative cases are given below, each with its answer.
q: Please state whether Daq is below 8 ×10⁻⁶ cm2/s for CCCCc1nc(Cl)c(CO)n1Cc1ccc(-c2ccccc2-c2nn[nH]n2)cc1 [LOSARTAN]
a: Met

q: Please state whether Daq is below 8 ×10⁻⁶ cm2/s for Cc1cc(=O)n(-c2ccccc2)n1C [ANTIPYRINE]
a: Not met

q: Please state whether Daq is below 8 ×10⁻⁶ cm2/s for CN1CC(=O)NC1=N [CREATININE]
a: Not met

q: Please state whether Daq is below 8 ×10⁻⁶ cm2/s for NC(N)=O [UREA]
a: Not met

q: Please state whether Daq is below 8 ×10⁻⁶ cm2/s for CC1(C)S[C@@H]2[C@H](NC(=O)[C@H](N)c3ccc(O)cc3)C(=O)N2[C@H]1C(=O)O [AMOXICILLIN]
a: Met

q: Please state whether Daq is below 8 ×10⁻⁶ cm2/s for COc1ccc2cc([C@H](C)C(=O)O)ccc2c1 [NAPROXEN]
a: Not met

q: Please state whether Daq is below 8 ×10⁻⁶ cm2/s for O=c1c(O[C@@H]2O[C@H](CO)[C@@H](O)[C@H](O)[C@H]2O)c(-c2ccc(O[C@@H]3O[C@H](CO)[C@@H](O)[C@H](O)[C@H]3O)c(O)c2)oc2cc(O)cc(O)c12
a: Met

q: Please state whether Daq is below 8 ×10⁻⁶ cm2/s for CC1=C(C(=O)O)N2C(=O)[C@@H](NC(=O)[C@H](N)c3ccccc3)[C@H]2SC1 [CEPHALEXIN ANHYDROUS]
a: Met

q: Please state whether Daq is below 8 ×10⁻⁶ cm2/s for NS(=O)(=O)c1cc2c(cc1Cl)NCNS2(=O)=O [HYDROCHLOROTHIAZIDE]
a: Met

q: Please state whether Daq is below 8 ×10⁻⁶ cm2/s for CC(=O)Nc1ccc(O)cc1 [ACETAMINOPHEN]
a: Not met

Next:
q: Please state whether Daq is below 8 ×10⁻⁶ cm2/s for COC1=CC(=O)C[C@@H](C)[C@]12Oc1c(Cl)c(OC)cc(OC)c1C2=O [GRISEOFULVIN]
a: Met

q: Please state whether Daq is below 8 ×10⁻⁶ cm2/s for CC(C)[C@H](N)C(=O)OCCOCn1cnc2c(=O)[nH]c(N)nc21 [VALACYCLOVIR]
a: Met

q: Please state whether Daq is below 8 ×10⁻⁶ cm2/s for O=C(O)c1ccccc1O [SALICYLIC ACID]
a: Not met

* * *

assay: clinical; conditions: human
Recorded Papp by entry
// note: answer is a bare numeric in ×10⁻⁶ cm/s

Reference set, count: 3
q: State its Papp: CC(C)n1c(/C=C/C(O)CC(O)CC(=O)O)c(-c2ccc(F)cc2)c2ccccc21 (centres undefined)
a: 238

q: State its Papp: NS(=O)(=O)c1cc2c(cc1Cl)NCNS2(=O)=O [HYDROCHLOROTHIAZIDE]
a: 4

q: State its Papp: CNC(=C[N+](=O)[O-])NCCSCc1ccc(CN(C)C)o1
a: 27.3

Next:
q: State its Papp: C[C@H](N[C@@H](CCc1ccccc1)C(=O)O)C(=O)N1CCC[C@H]1C(=O)O [ENALAPRILAT ANHYDROUS]
a: 10
